- Organism: Homo sapiens
- method: % lactone at different intervals of time in human blood.
- Format: ADME, organism-based
# Yes = Lactone below 20% (exclusive); No = Lactone at/above 20%

Answered cases to consult:
CC[C@@]1(O)C(=O)OCc2c1cc1n(c2=O)Cc2c-1nc1ccccc1c2[Si](C)(C)CCCCl    Yes
CC[C@@]1(O)C(=O)OCc2c1cc1n(c2=O)Cc2cc3ccccc3nc2-1    Yes
CC[C@@]1(O)C(=O)OCc2c1cc1n(c2=O)Cc2c-1nc1ccccc1c2[Si](C)(C)C(C)(C)C    Yes
CC[C@@]1(O)C(=O)OCc2c1cc1n(c2=O)Cc2c-1nc1ccc(O)cc1c2[Si](C)(C)CCCCl    Yes

Now consider the entry below.
Query block: Lab log: compare recorded Lactone with 20%; is it strictly lower for CC[C@@]1(O)C(=O)OCc2c1cc1n(c2=O)Cc2c-1nc1ccc(O)cc1c2[Si](C)(C)C(C)(C)C ?
Result block: No

---

- method: % lactone at different intervals of time in PBS with RBC suspension
- Assay type: ADME
- setup_conditions: erythrocytes
assay_endpoint: Lactone (%)
Reply numerically in %, unit not repeated.

CC[C@@]1(O)C(=O)OCc2c1cc1n(c2=O)Cc2c-1nc1ccc(O)cc1c2[Si](C)(C)CCCCl    50.2
CC[C@@]1(O)C(=O)OCc2c1cc1n(c2=O)Cc2cc3ccccc3nc2-1 [CAMPTOTHECIN]    34.6
CC[C@@]1(O)C(=O)OCc2c1cc1n(c2=O)Cc2c-1nc1ccccc1c2[Si](C)(C)CCCCl    43.4

Query block: Endpoint output: Lactone of CCc1c2c(nc3ccc(O)cc13)-c1cc3c(c(=O)n1C2)COC(=O)[C@]3(O)CC [7-ETHYL-10-HYDROXYCAMPTOTHECIN] . Value?
Result block: 37.5

Query block: Endpoint output: Lactone of CC[C@@]1(O)C(=O)OCc2c1cc1n(c2=O)Cc2c-1nc1ccc(O)cc1c2[Si](C)(C)C(C)(C)C [AR-67] . Value?
Result block: 41.4

Query block: Endpoint output: Lactone of CC[C@@]1(O)C(=O)OCc2c1cc1n(c2=O)Cc2c-1nc1ccccc1c2[Si](C)(C)C(C)(C)C . Value?
Result block: 59.4

---

- method: Equilibrium association constant interacting with unilamellar vesicles of negatively charged DMPG in PBS buffer at pH of 7.4 and 37 degrees celsius.
- Assay type: ADME
- setup_conditions: pH 7.4
Attribute: log10(KDMPG)
Plainly stated, the numbers are log10 of KDMPG given in M⁻¹.

Solved cases below.
CC[C@@]1(O)C(=O)OCc2c1cc1n(c2=O)Cc2c-1nc1ccc(O)cc1c2[Si](C)(C)C(C)(C)C    3.45
CCc1c2c(nc3ccc(O)cc13)-c1cc3c(c(=O)n1C2)COC(=O)[C@]3(O)CC [7-ETHYL-10-HYDROXYCAMPTOTHECIN]    2.20
CC[C@@]1(O)C(=O)OCc2c1cc1n(c2=O)Cc2c-1nc1ccccc1c2[Si](C)(C)CCCCl    3.40

Query block: Endpoint output: log10(KDMPG) of CC[C@@]1(O)C(=O)OCc2c1cc1n(c2=O)Cc2c-1nc1ccccc1c2[Si](C)(C)C(C)(C)C . Value?
Result block: 4.20

Query block: Endpoint output: log10(KDMPG) of CC[C@@]1(O)C(=O)OCc2c1cc1n(c2=O)Cc2c-1nc1ccc(O)cc1c2[Si](C)(C)CCCCl . Value?
Result block: 3.08

Query block: Endpoint output: log10(KDMPG) of CC[C@@]1(O)C(=O)OCc2c1cc1n(c2=O)Cc2cc3c(CN(C)C)c(O)ccc3nc2-1 . Value?
Result block: 1.70

Query block: Endpoint output: log10(KDMPG) of CC[C@@]1(O)C(=O)OCc2c1cc1n(c2=O)Cc2cc3ccccc3nc2-1 . Value?
Result block: 2.00
